- Test system: KRAS PDC tumor spheroids (HUVEC+MSC), viability
- Experimental Details: Anticancer human tumor 254851-301-R-J1-PDC patient-derived colon carcinoma cell line growth inhibition [KRAS2]
- Condition: second compound 10 µM; first compound 1 µM; active compounds read low
- Text: Multicellular complex tumor spheroid response to RAS pathway inhibitors in combination with a targeted agents in patient-derived cell lines with oncogenic KRAS variants from multiple cancer types A high-throughput screen of multi-cell type tumor spheroids was designed to identify active combinations of targeted small molecules and KRAS pathway inhibitors. […] Compounds. […] If the clinical Cmax for an agent had not been determined, the highest concentration tested was 10 microM. […]
Label key: 1 (yes) means viability, T/C under 60%; 0 (no) means viability, T/C of 60% or more.

Molecule	Assigned Category
CCNC(=O)CC1N=C(c2ccc(Cl)cc2)c2cc(OC)ccc2-n2c(C)nnc21 (stereo unspecified) + COc1cc2nc(C)nc(NC(C)c3cc(N)cc(C(F)(F)F)c3)c2cc1OC1CCOC1	1 (yes)
CCN1CCN(Cc2ccc(Nc3ncc(F)c(-c4cc(F)c5nc(C)n(C(C)C)c5c4)n3)nc2)CC1 + CC1OCC2(CCN(c3cnc(Sc4ccnc(N)c4Cl)c(N)n3)CC2)C1N	1 (yes)
CC1OCC2(CCN(c3cnc(Sc4ccnc(N)c4Cl)c(N)n3)CC2)C1N (stereo unspecified) + C=CC(=O)N1CCN(c2nc(=O)n(-c3c(C)ccnc3C(C)C)c3nc(-c4c(O)cccc4F)c(F)cc23)C(C)C1	1 (yes)

// query Given COc1cc(Nc2ncc3c(n2)-c2ccc(Cl)cc2C(c2c(F)cccc2OC)=NC3)ccc1C(=O)O + C=CC(=O)N1CCN(c2nc(=O)n(-c3c(C)ccnc3C(C)C)c3nc(-c4c(O)cccc4F)c(F)cc23)C(C)C1 , is recorded viability, T/C strictly lower than 60%?
// result 1 (yes)

// query Given CC1(C)CCC(CN2CCN(c3ccc(C(=O)NS(=O)(=O)c4ccc(NCC5CCOCC5)c([N+](=O)[O-])c4)c(Oc4cnc5[nH]ccc5c4)c3)CC2)=C(c2ccc(Cl)cc2)C1 + CC1OCC2(CCN(c3cnc(Sc4ccnc(N)c4Cl)c(N)n3)CC2)C1N , is recorded viability, T/C strictly lower than 60%?
// result 0 (no)

// query Given COC(=O)c1ccc2c(C(=Nc3ccc(N(C)C(=O)CN4CCN(C)CC4)cc3)c3ccccc3)c(O)[nH]c2c1 + CNCc1ccccc1-c1csc(C(C)Nc2nc(C)nc3cc(OC)c(OC)cc23)c1 , is recorded viability, T/C strictly lower than 60%?
// result 1 (yes)

* * *

- System: KRAS PDC tumor spheroids (HUVEC+MSC), viability
- Experimental Details: Anticancer human tumor 254851-301-R-J1-PDC cell line growth inhibition [KRAS2];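 also: spheroids exposed to compounds for seven days before readout; 100% = DMSO vehicle control luminescence of the spheroids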
- Condition: second compound 0.316 µM; first compound 0.0316 µM; active compounds read low
Label key: Met means viability, T/C under 90%; Not met means viability, T/C of 90% or more.

// query Given O=C(c1cc(Cc2n[nH]c(=O)c3ccccc23)ccc1F)N1CCN(C(=O)C2CC2)CC1 + CC1OCC2(CCN(c3cnc(Sc4ccnc(N)c4Cl)c(N)n3)CC2)C1N , is recorded viability, T/C strictly lower than 90%?
// result Not met

// query Given CC(=O)OC12COC1CC(O)C1(C)C(=O)C(O)C3=C(C)C(OC(=O)C(O)C(NC(=O)OC(C)(C)C)c4ccccc4)CC(O)(C(OC(=O)c4ccccc4)C21)C3(C)C (stereo unspecified) + C=CC(=O)N1CCN(c2nc(=O)n(-c3c(C)ccnc3C(C)C)c3nc(-c4c(O)cccc4F)c(F)cc23)C(C)C1 , is recorded viability, T/C strictly lower than 90%?
// result Not met

// query Given CC(=O)OC12COC1CC(O)C1(C)C(=O)C(O)C3=C(C)C(OC(=O)C(O)C(NC(=O)OC(C)(C)C)c4ccccc4)CC(O)(C(OC(=O)c4ccccc4)C21)C3(C)C (stereo unspecified) + CC1OCC2(CCN(c3cnc(Sc4ccnc(N)c4Cl)c(N)n3)CC2)C1N , is recorded viability, T/C strictly lower than 90%?
// result Met

// query Given Cn1ncnc1[C@H]1c2n[nH]c(=O)c3cc(F)cc(c23)N[C@@H]1c1ccc(F)cc1 + C=CC(=O)N1CCN(c2nc(OCC3CCCN3C)nc3c2CCN(c2cccc4cccc(C)c24)C3)CC1CC#N , is recorded viability, T/C strictly lower than 90%?
// result Not met

// query Given CC(=O)Nc1cccc(-n2c(=O)n(C3CC3)c(=O)c3c(Nc4ccc(I)cc4F)n(C)c(=O)c(C)c32)c1 + C=CC(=O)N1CCN(c2nc(OCC3CCCN3C)nc3c2CCN(c2cccc4cccc(C)c24)C3)CC1CC#N , is recorded viability, T/C strictly lower than 90%?
// result Met
